# System: PSMA-expressing LNCaP tumor xenografts
# method-notes: Ex vivo biodistribution in LNCaP tumor-bearing mice
# settings: LNCaP tumor-bearing mice, 1 h post injection, mean ± SD, n = 4
Would you mind telling me the reported Pancreas uptake of each entry?
Give bare numbers, in %ID/g.

Count: 4. Required value per item: Pancreas uptake.
1. N#C[C@@H]1CC(F)(F)CN1C(=O)CNC(=O)c1ccnc2ccc(-c3cn(CC(=O)N[C@@H](CCCCNC(=O)CN4CCN(CC(=O)[O-])CCN(CC(=O)[O-])CCN(CC(=O)[O-])CC4)C(=O)NCC(=O)NC[C@H]4CC[C@H](C(=O)N[C@@H](Cc5c6ccccc6cc6ccccc56)C(=O)NCCCC[C@H](NC(=O)N[C@@H](CCC(=O)O)C(=O)O)C(=O)O)CC4)nn3)cc12.[68Ga+3] [[^68Ga]Ga-AV01030]
2. N#C[C@@H]1CC(F)(F)CN1C(=O)CNC(=O)c1ccnc2ccc(OCCCN3CCN(C(=O)CN4CCN(CC(=O)[O-])CCN(CC(=O)[O-])CCN(CC(=O)[O-])CC4)CC3)cc12.[68Ga+3] [[^68Ga]Ga-FAPI-04, reference compound]
3. N#C[C@@H]1CC(F)(F)CN1C(=O)CNC(=O)c1ccnc2ccc(OCc3cn(CC(=O)N[C@@H](CCCCNC(=O)CN4CCN(CC(=O)[O-])CCN(CC(=O)[O-])CCN(CC(=O)[O-])CC4)C(=O)NCC(=O)NC[C@H]4CC[C@H](C(=O)N[C@@H](Cc5c6ccccc6cc6ccccc56)C(=O)NCCCC[C@H](NC(=O)N[C@@H](CCC(=O)O)C(=O)O)C(=O)O)CC4)nn3)cc12.[68Ga+3] [[^68Ga]Ga-AV01038]
4. N#C[C@@H]1CC(F)(F)CN1C(=O)CNC(=O)c1ccnc2ccc(OCCCc3cn(CC(=O)N[C@@H](CCCCNC(=O)CN4CCN(CC(=O)[O-])CCN(CC(=O)[O-])CCN(CC(=O)[O-])CC4)C(=O)NCC(=O)NC[C@H]4CC[C@H](C(=O)N[C@@H](Cc5c6ccccc6cc6ccccc56)C(=O)NCCCC[C@H](NC(=O)N[C@@H](CCC(=O)O)C(=O)O)C(=O)O)CC4)nn3)cc12.[68Ga+3] [[^68Ga]Ga-AV01017]

result:
1: 3.63; 2: 0.99; 3: 3.91; 4: 5.38

* * *

# Tested on: PSMA-expressing LNCaP tumor xenografts
# method-notes: Ex vivo biodistribution in LNCaP tumor-bearing mice
# settings: LNCaP tumor-bearing mice, 1 h post injection, mean ± SD, n = 4
# Procedure: Biodistribution studies were conducted at 1 h post injection with ^68Ga-labeled AV01017, AV01030, AV01038, HTK03041, and FAPI-04 in LNCaP tumor-bearing mice (Figure 5 and Table S4, Supplementary Materials). […] For biodistribution studies, the mice were injected with the radiotracer (~2–4 MBq) as described above. […] Blood was withdrawn by cardiac puncture, and organs/tissues of interest were collected, weighed, and counted using a Perkin Elmer (Waltham, MA, USA) Wizard2 2480 automatic gamma counter.
property-name: Adrenal glands uptake (%ID/g)
Numbers only, in %ID/g.

Answered examples (2):
1) N#C[C@@H]1CC(F)(F)CN1C(=O)CNC(=O)c1ccnc2ccc(OCCCc3cn(CC(=O)N[C@@H](CCCCNC(=O)CN4CCN(CC(=O)[O-])CCN(CC(=O)[O-])CCN(CC(=O)[O-])CC4)C(=O)NCC(=O)NC[C@H]4CC[C@H](C(=O)N[C@@H](Cc5c6ccccc6cc6ccccc56)C(=O)NCCCC[C@H](NC(=O)N[C@@H](CCC(=O)O)C(=O)O)C(=O)O)CC4)nn3)cc12.[68Ga+3] [[^68Ga]Ga-AV01017] = 6.24
2) N#C[C@@H]1CC(F)(F)CN1C(=O)CNC(=O)c1ccnc2ccc(-c3cn(CC(=O)N[C@@H](CCCCNC(=O)CN4CCN(CC(=O)[O-])CCN(CC(=O)[O-])CCN(CC(=O)[O-])CC4)C(=O)NCC(=O)NC[C@H]4CC[C@H](C(=O)N[C@@H](Cc5c6ccccc6cc6ccccc56)C(=O)NCCCC[C@H](NC(=O)N[C@@H](CCC(=O)O)C(=O)O)C(=O)O)CC4)nn3)cc12.[68Ga+3] [[^68Ga]Ga-AV01030] = 3.13

Moving on to the next molecule.
Memo: N#C[C@@H]1CC(F)(F)CN1C(=O)CNC(=O)c1ccnc2ccc(OCCCN3CCN(C(=O)CN4CCN(CC(=O)[O-])CCN(CC(=O)[O-])CCN(CC(=O)[O-])CC4)CC3)cc12.[68Ga+3] [[^68Ga]Ga-FAPI-04, reference compound] , reported Adrenal glands uptake: 2.16
